Entry source: paper PMC7914367

Molecular target: T1, recombinant human MasR (Recombinant Human MAS1 protein) (human) (UniProt P04201)
T1 sequence (P04201 whole entry, looked up): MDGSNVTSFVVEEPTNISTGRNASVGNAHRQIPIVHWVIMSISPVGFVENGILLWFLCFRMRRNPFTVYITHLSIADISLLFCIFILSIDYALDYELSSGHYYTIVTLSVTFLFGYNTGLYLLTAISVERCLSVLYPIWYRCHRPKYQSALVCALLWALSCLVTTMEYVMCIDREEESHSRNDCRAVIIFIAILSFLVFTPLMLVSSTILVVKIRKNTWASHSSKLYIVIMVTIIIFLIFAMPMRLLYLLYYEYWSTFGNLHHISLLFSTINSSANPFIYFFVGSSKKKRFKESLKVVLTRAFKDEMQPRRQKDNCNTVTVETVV
Test: SPR; SPR imaging (SPRi, PlexArray HT); rhMasR immobilised on a CM5 sensor chip; Ang1-7, SAA1-7 and TDCNfs diluted in PBS at 0.001 to 10 μM
pKd: −log10 of the molar value. Square brackets hold non-standard residues; d marks the D form. Ends that are not written are not given here. * marks the point of attachment. NBD = O=[N+]([O-])c1ccc(*)c2nonc12
propertyName: pKd

[
  {
    "binder": "{NBD}-[dF][dF][dY][dE][dE]GDRVYIHP (also: co-assembly nanofibers doped with telmisartan) [telmisartan-doped co-assembly nanofibers]",
    "pKd": 7.78
  },
  {
    "binder": "DRVYIHP [angiotensin 1-7]",
    "pKd": 7.99
  },
  {
    "binder": "{NBD}-[dF][dF][dY][dE][dE]GDRVYIHP [self-assembly angiotensin 1-7 (NBD-DF-DF-DY-DE-DE-G-DRVYIHP)]",
    "pKd": 7.90
  }
]
